PROTOCOL SUMMARY: galactose survival enhancers in mitochondrial complex I cybrids – cell-based, galactose medium, ATP luminescence, primary screen (AID 1645843);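 also: positive z means more ATP and so rescue of galactose-driven cybrid death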
CONDITIONS USED: complex I mutant cybrid cells, 72 h, stronger effect = higher value
Give z-score for every item shown.
Answers are plain numbers.

Below, 4 molecules whose answers are already recorded.
*Q* I'd like to know its z-score. The molecule in question is `NCCS(=O)(=O)O`
*A* 0.675

*Q* I'd like to know its z-score. The molecule in question is `CC/C(=C(/CC)c1ccc(O)cc1)c1ccc(O)cc1`
*A* -0.645

*Q* I'd like to know its z-score. The molecule in question is `COC(=O)N/N=C/c1c[n+]([O-])c2ccccc2[n+]1[O-]`
*A* 0.34

*Q* I'd like to know its z-score. The molecule in question is CCN(CC)C(C)CN1c2ccccc2Sc2ccccc21 (configuration not stated)
*A* -0.44

Working through the 4 molecules below one at a time, give z-score for each.
1. C[n+]1ccccc1/C=N/O
2. CC[N+](C)(CC)CCOC(=O)C(O)(c1ccccc1)C1CCCCC1 (configuration not stated)
3. Nc1ccc(S(=O)(=O)Nc2ccnn2-c2ccccc2)cc1
4. CO[C@@]1(NC(=O)CSCC#N)C(=O)N2C(C(=O)O)=C(CSc3nnnn3C)CS[C@@H]21

*A*
0.085
0.47
0.735
0.77

Working through the 3 molecules below one at a time, give z-score for each.
1. O=C(NC(Cc1cc(=O)[nH]c2ccccc12)C(=O)O)c1ccc(Cl)cc1 (configuration not stated)
2. O=c1c(-c2ccccc2)c1-c1ccccc1
3. Oc1c(Cl)cc(Cl)c(Cl)c1Cc1c(O)c(Cl)cc(Cl)c1Cl

*A*
[0.47, -1.44, -1.5]

*Q* I'd like to know its z-score. The molecule in question is `C[C@H]1COc2c(C3(N)CC3)c(F)cc3c(=O)c(C(=O)O)cn1c23`
*A* 0.735

---

PROTOCOL SUMMARY: HCT116 colon cancer cell growth inhibition, primary screen, CellTiter-Glo luminescence, NPC library (AID 1117342)
CONDITIONS USED: at 20 µM (top of the series)
Activity calls are given as the source filed them.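 The calls were made as follows: active = compounds that lower survival of HCT116 colon cancer cells in the luminescence readout, no numeric limit stated; inactive = the rest.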
Pick one: yes = active, no = inactive

*Q* Please share the test call associated with COc1ccccc1OCC(O)CO (stereo not given) .
*A* no

*Q* Please share the test call associated with `CC(C)(Sc1cc(C(C)(C)C)c(O)c(C(C)(C)C)c1)Sc1cc(C(C)(C)C)c(O)c(C(C)(C)C)c1` .
*A* no

*Q* Please share the test call associated with `C[C@](N)(Cc1ccc(O)c(O)c1)C(=O)O` .
*A* no

*Q* Please share the test call associated with `CCCCC1(COC(=O)CCC(=O)O)C(=O)N(c2ccccc2)N(c2ccccc2)C1=O` .
*A* no

*Q* Please share the test call associated with `NC(=O)c1ncn([C@@H]2O[C@H](CO)[C@@H](O)[C@H]2O)c1O` .
*A* no

Next:
*Q* Please share the test call associated with `Nc1ncnc2nc[nH]c12` .
*A* no

*Q* Please share the test call associated with `CC(C)NNC(=O)c1ccncc1` .
*A* no

---

PROTOCOL SUMMARY: polyglutamine aggregate formation blockers (AID 1604)
CONDITIONS USED: polyglutamine-induced protein aggregation inhibition assay; stronger effect = higher value; concentration not given here
Mark fulfilled for reported inhibition of aggregation of 60% or greater; mark not fulfilled for anything smaller.

*Q* # check: inhibition of aggregation of COCCc1ccc(OCC(O)CNC(C)C)cc1 (stereo not drawn) is greater than or equal to 60%
*A* fulfilled

Next:
*Q* # check: inhibition of aggregation of NC(Cc1ccc(Cl)cc1)C(=O)O (stereo not drawn) is greater than or equal to 60%
*A* fulfilled

*Q* # check: inhibition of aggregation of COc1ccc(CCN(C)CCCC(C#N)(c2ccc(OC)c(OC)c2)C(C)C)cc1OC (stereo not drawn) is greater than or equal to 60%
*A* fulfilled

*Q* # check: inhibition of aggregation of CCN(CC)C(C)CN1c2ccccc2Sc2ccccc21 (stereo not drawn) is greater than or equal to 60%
*A* not fulfilled

*Q* # check: inhibition of aggregation of `CN(C)CCCN1c2ccccc2Sc2ccccc21` is greater than or equal to 60%
*A* not fulfilled

*Q* # check: inhibition of aggregation of `O=C(Nc1ccc([N+](=O)[O-])cc1Cl)c1cc(Cl)ccc1O` is greater than or equal to 60%
*A* not fulfilled

*Q* # check: inhibition of aggregation of `CCN(CC)CCNC(=O)COc1ccc(OC)cc1` is greater than or equal to 60%
*A* fulfilled
